Target of assay: T1, GFP-fused huCB1 in styrene maleic acid lipoparticles (CB1-SMALP-GFP) (human, UniProt P21554 1-472)
T1 construct: Prepared as described in Luna V. et al. 2018; also called huCB1-GFP-SMALP; GFP-tagged huCB1-SMALP; not shown: GFP fused to huCB1
T1 sequence (P21554 whole entry, the tested form may be a part): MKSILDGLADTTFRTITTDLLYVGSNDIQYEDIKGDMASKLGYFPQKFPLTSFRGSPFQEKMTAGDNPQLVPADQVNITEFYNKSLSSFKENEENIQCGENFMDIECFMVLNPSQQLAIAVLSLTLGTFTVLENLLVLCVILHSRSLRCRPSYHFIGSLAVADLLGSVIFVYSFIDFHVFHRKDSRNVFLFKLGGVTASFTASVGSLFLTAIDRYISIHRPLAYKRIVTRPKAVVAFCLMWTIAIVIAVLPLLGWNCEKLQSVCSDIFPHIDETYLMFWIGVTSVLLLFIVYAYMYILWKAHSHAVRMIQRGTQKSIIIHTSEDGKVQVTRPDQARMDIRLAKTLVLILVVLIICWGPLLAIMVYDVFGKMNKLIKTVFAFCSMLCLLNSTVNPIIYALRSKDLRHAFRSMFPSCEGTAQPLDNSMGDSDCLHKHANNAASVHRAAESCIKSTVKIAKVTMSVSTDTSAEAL
Assay name: flow cytometry, yeast-displayed Fab, 2.5 nM CB1-SMALP-GFP, after background subtraction
Property: Relative binding fold change compared to LIBC528116 (Fab)

Binder | Obs value
LIBC680812-1 (yeast-displayed Fab) (Fab, V domains shown) VH: QVQLQESGPGLVKPSQTLSLTCTVSGGSIRRGGDYWGWIRQHPGKGLEWIGHVYQTGSTKYNPSFKDRATISVNTYKNQFSLKLSSVTAADTAVYYCARNYDTLTGYSYYYYGMDVWGQGTTVTVSS VL: DIQMTQSPSSLSASVGDRVTITCRASQSISSYLNWYQQKPGKAPKLLIYSARRLSSGVPSRFSGSGSGTDFTLTISSLQPEDFATYYCQQYRSYPITFGGGTKVEIKR | 1.71 fold
LIBC681594-1 (yeast-displayed Fab) (Fab, V domains shown) VH: QVQLQESGPGLVKPSQTLSLTCTVSGGSIRRGGDYWAWIRQHPGKGLEWIGHIYQTGSTNYNPRFKGRATISVNTYKNQFSLKLSSVTAADTAVYYCARNYDTLTGYSYYYYGMDVWGQGTTVTVSS VL: DIQMTQSPSSLSASVGDRVTITCRASQSISSYLNWYQQKPGKAPKLLIYKARKLSSGVPSRFSGSGSGTDFTLTISSLQPEDFATYYCQQFGSMPLTFGGGTKVEIKR | 2.57 fold
